Hi! I'm sharing some IC50 results obtained with Retinoic acid receptor RXR-alpha (Rattus norvegicus, UniProt Q05343).
measurement.label: IC50 (nM)

>  <compound>
C/C(=C/C=C/C(C)=C/C(=O)O)c1cc(C(C)(C)C)cc(C(C)(C)C)c1OCC(F)F

>  <tgt>
Retinoic acid receptor RXR-alpha (Rattus norvegicus, UniProt Q05343)

>  <measurement.label>
IC50

>  <unit.abbrev>
nM

>  <result.value>
8

$$$$
>  <compound>
CCCOc1c(C2=C(/C=C/C(C)=C/C(=O)O)CCC2)cc(C(C)C)cc1C(C)C

>  <tgt>
Retinoic acid receptor RXR-alpha (Rattus norvegicus, UniProt Q05343)

>  <measurement.label>
IC50

>  <unit.abbrev>
nM

>  <result.value>
4.5

$$$$

###

Target protein (sequence): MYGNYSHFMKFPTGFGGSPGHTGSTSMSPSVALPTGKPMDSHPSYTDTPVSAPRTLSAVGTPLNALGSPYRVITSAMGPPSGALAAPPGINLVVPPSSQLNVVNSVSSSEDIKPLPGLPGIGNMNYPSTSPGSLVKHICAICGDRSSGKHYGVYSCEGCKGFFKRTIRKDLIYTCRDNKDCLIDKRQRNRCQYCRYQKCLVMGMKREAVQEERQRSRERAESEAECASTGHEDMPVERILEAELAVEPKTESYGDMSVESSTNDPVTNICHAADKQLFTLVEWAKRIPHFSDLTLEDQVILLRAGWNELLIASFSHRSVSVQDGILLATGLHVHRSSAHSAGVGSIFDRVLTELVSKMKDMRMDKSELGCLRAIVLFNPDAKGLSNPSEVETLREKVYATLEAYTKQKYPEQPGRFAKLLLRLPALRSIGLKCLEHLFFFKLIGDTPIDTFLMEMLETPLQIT
pKi: −log10 of the molar value.
# pKi annotations

>  <compound>
CCCOc1c(C2=C(/C=C/C(C)=C/C(=O)O)CCC2)cc(C(C)C)cc1C(C)C

>  <pKi>
8.31

$$$$
>  <compound>
CC(/C=C/c1ccncc1-c1cc(C(C)C)cc(C(C)C)c1OCC(F)(F)F)=C\C(=O)O

>  <pKi>
7.20

$$$$
>  <compound>
CC(/C=C/c1sccc1-c1cc(C(C)C)cc(C(C)C)c1OCC(F)F)=C\C(=O)O

>  <pKi>
8.60

$$$$
>  <compound>
C/C(=C/C=C/C(C)=C/C(=O)O)c1cc(C(C)(C)C)cc(C(C)(C)C)c1OCC(F)F

>  <pKi>
7.92

$$$$
>  <compound>
Cc1cc2c(cc1C1(c3ccc(C(=O)O)cn3)CC1)C(C)(C)CCC2(C)C

>  <pKi>
7.74

$$$$
>  <compound>
CC(/C=C/c1sccc1-c1cc(C(C)(C)C)cc(C(C)(C)C)c1OCCC(F)F)=C\C(=O)O

>  <pKi>
7.86

$$$$
>  <compound>
CC(/C=C/c1ccoc1-c1cc(C(C)C)cc(C(C)C)c1OCCCF)=C\C(=O)O

>  <pKi>
8.18

$$$$
>  <compound>
CC(/C=C/c1ccccc1-c1cc(C(C)(C)C)cc(C(C)(C)C)c1OCCCF)=C\C(=O)O

>  <pKi>
6.81

$$$$
>  <compound>
CCc1cc(-c2ccsc2/C=C/C(C)=C/C(=O)O)c(OCCCF)c(C(C)(C)C)c1

>  <pKi>
8.31

$$$$
